- assay.explanation: soluble fraction after stress (log2 fold change); higher = more stays soluble; pooled small domains, quantitative proteomics
- recorded.conditions: stress: 50 degC
For each record, write down the corresponding soluble fraction (log2).
# print the numeric value only

Challenge: Please list soluble fraction (log2) recorded for the sequence HMGQPAVSSRDVAEQFGKEHRNVIQSIKNLIAENSALTFMFIEDTYTAGTGKKYPMYYMNRDGFTLLA
Response given: 0.224

Challenge: For HMTAPELGIRQDGNTLVIFWPSSVTGYVLKSADAVDTPPASWTSVTHTTVGDEHRAEITPTGNSRFFRLV , write its soluble fraction (log2).
Response given: -0.267

Challenge: Entry HMAPPIQQQVESLMNSFAKIGVTVPMLESRLQHAMSAVTANELVMLRKIGASIRDGFATVAEQFPA needs its soluble fraction (log2) filled in; supply it.
Response given: 0.0539

Challenge: Write down soluble fraction (log2) measured for item HMVSSYTMAIQINGKLRATHDFSVDTSQEDIKKIIINLPAIQKYINGVEIKKFIIVPQKIVNIV
Response given: -2.52

Challenge: Give a short answer stating reported soluble fraction (log2) for HMVSINETAFIQIKNSSATEIKEKITALKLDELKNVTITADIRTNKLIVVGPKATINKIQELVIELDTES .
Response given: 0.281

Challenge: Provide soluble fraction (log2) value for the following sequence: HMGDEPGAGYKWREDVLLRVMSEHGIDESARDDFVRHAVKFDDDDNLYLKKAEIIAAAEAWESSS
Response given: 0.17

* * *

- assay.explanation: soluble fraction after stress (log2 fold change); higher = more stays soluble; pooled small domains, quantitative proteomics
- recorded.conditions: stress: 50 degC
Field: soluble fraction (log2). Provide a value for each of the sequences that follow.
Keep the answer to the number alone.

Challenge: Please report soluble fraction (log2) for the following sequence: HMRLPAISYSFARKHGVVLRLDGDRPVASLREGADPAILIEVKRHLDGAMGVEKVSEAAFDQLLSTTYA
Response given: -0.484

Challenge: Provide measured soluble fraction (log2) value, entry: HMAPPPPEGYIHRWIRESVMGFDDKKNLSARIREGFELVRAEEYPDYEAPTVMDGKHAGVIANGGLLLARF
Response given: -0.148

Challenge: Give a short answer stating reported soluble fraction (log2) for HMANLAQITKTNAVALALKDVGAYNSEDLMKFIDLDKVVLGEDGKPQLEDTINSLKESSPYLFQ .
Response given: 0.0767

Challenge: Please give measured soluble fraction (log2) of the following entry: HMSSAVKRALAELPENWRMIVYYRVVEGLSYAEIAKVLDIPDGSVMSGLHRGKKMLRGLLLEYAQQEGYD
Response given: -1.72

Challenge: Provide soluble fraction (log2) value for the following sequence: HMKIQISGSQRIDENVVVKVAGLSFPQSLLSLEPGQIESKLMQELPVQEVSVQRRLLPPGLDIQLVE
Response given: 0.0631

Challenge: Give soluble fraction (log2) for HMSGITDIITDGKATSRPVVVTDGGHIRVLSPYTSFAIYTLGGMSLPTESRLEPGIYIVVVDSNAVKVAV
Response given: -0.619

Challenge: Give soluble fraction (log2) for the following sequence: HMDDVIDVYATYDVSPTNQISNIKLYSDAAHANPVTGEAGKSYNDITEGHPGYQFRWSGTTWVPI
Response given: -0.295

Challenge: Give soluble fraction (log2) for the following sequence: HMSSGTAYATDAVNVRSGPGTSYTVLGYLSRGEKVTITGTVSNGWTQIQLPGNRLGYVSSAYLSASYPS
Response given: -0.259

Challenge: Indicate the recorded soluble fraction (log2) value for this sequence: HMQPIQPNQAKYLDGLSSKYKGKGNHSQAAQLTALRDALNAGDHAKAREIYDKLDYEPQAEAAH
Response given: 0.351

Challenge: Read the entry HMTTIHVDPEKISKIIGPGGKTIKKIVEETGAKIDIEEDGRVYIAAVNSEEAAKAIDMINGI and write its reported soluble fraction (log2).
Response given: 0.257

Challenge: Give soluble fraction (log2) for the following sequence: HMGVKTDKYYYQMATETRVNKHYGLSNQYIATLISEYPRSPLIPNASILSKKNNADLALIDQSINQR
Response given: -0.397

Challenge: Provide only the value of recorded soluble fraction (log2) for HMNDTVGMNIRRLRKERGMTQGDLADKAGIQRETISKYESNKLTPPSYNLESIEKALKVPAGTLAQ
Response given: 0.0652

Challenge: Identify measured soluble fraction (log2) associated with HMPPITIVPNDNGVPIIRSQTPEISTAVNVELKAAGINTHTIDGTSIRVPKAQAQVAQQIVSRVNTRFT
Response given: 0.158

* * *

Assignment: determine reported soluble fraction (log2) for the given sequences.
- assay.explanation: soluble fraction after stress (log2 fold change); higher = more stays soluble; pooled small domains, quantitative proteomics
- recorded.conditions: stress: 50 degC
Could you keep your reply to the number by itself?

Challenge: Return soluble fraction (log2) (reported value) for this sequence: HMGLPAWVPQNYIDRVTAIYDYSADKDDELTFNEGSTIFVLKKNDDGWWEGVMDGVTGLFPGNYVEAT
Response given: -0.8

Challenge: Assign soluble fraction (log2) to the following record: HMVLVEEYDTKDSASTFKIGYYARYNTKYGTPSKVGSYADNQRSGIWTFYTDSLKTYFKYNYSTGLIL
Response given: 0.115

Challenge: For the sequence HMVQPSAAVRAHPVGAFVEQRQGLSDDQILALQKKWNEGIYARIQGTRWFLFSKDTPAVTSLLLVPDLP , report soluble fraction (log2).
Response given: -0.555

Challenge: State its soluble fraction (log2): HMAHLNYQTVDINALIRHSLQLVSQDAQSRGIALQFTPRPELTTISADPDRLNQVLLNLYLNAMQD
Response given: -0.334

Challenge: Hello, please tell me recorded soluble fraction (log2) for this one: HMDQESFGYFHVKYADVKQVADLVQKLNIPAVTWADERTRRLVALGSPATLQRISQVLNMVDL
Response given: -0.721

Challenge: Give recorded soluble fraction (log2). HMSKEIQNILASLPSVDVLLKQIDPIYPHGKAKEATQQVVARLRESVVDGTRKTVIDQKEVIAMIHKQLEE
Response given: 0.143

Challenge: Dear colleague, please send me the reported soluble fraction (log2) for HMINKIANLSAELRMEGLPVSIRSTQAAVKIYMDLGGDDRNLLKTALMSIYVKDRYDIPKFNKVFEKLFA when you can.
Response given: -1.12

Challenge: Using known records, supply soluble fraction (log2) for HMEYDEVVVVKQIIPKGKNTMVAHLKHLKEHGETGFLKQAVGYLKLHASEIPFSVDAVISEVH
Response given: -0.361

Challenge: Provide measured soluble fraction (log2) value, entry: HMKRITAVISQKKGRDYYYIIVSYYLSNGKRVQRWIKTEFPINGNNKRKLEQKRIEVLQEWQDKLV
Response given: -1.3

Challenge: Retrieve soluble fraction (log2) measured for HMNKFKVNERVRVIATGEIGIVKGREILPVEGSKRVNIEYLVKVGNGFSNWKAFSKKELEPVR and print it.
Response given: -1.18

* * *

- assay.explanation: soluble fraction after stress (log2 fold change); higher = more stays soluble; pooled small domains, quantitative proteomics
- recorded.conditions: stress: 50 degC
recorded.metric: soluble fraction (log2)
Output: the number by itself.

Challenge: Specify reported soluble fraction (log2) for the sequence shown: HMFVEKDSIINKGNNSYNFVITDNNNKVLVEYNGLLPDLFKEEQGVVIEGRLKSDFIIHAFTVF
Response given: -0.209

Challenge: For the sequence HMLAVPADFAEKLQSLRSQLASDDLDASDAFGRLQPFIKALYPAQLEALRKAVDDFDFVEATRLIDQLPQ , report soluble fraction (log2).
Response given: -0.232

Challenge: Determine from records and report soluble fraction (log2) for HMNIILFLDELHRLLSDLPPEERNQAIKYYEDYFEDAGPENEQAILKELGSPQELANQIKATT
Response given: -0.627

Challenge: Note down soluble fraction (log2) recorded for HMDRESFIKLGRELARSAFAHVGQKSTEKALETAADVLRLKDPNEVLARLGSAELTGRQVVQAIYPELI
Response given: -0.0704

Challenge: Please give the documented soluble fraction (log2) of HMHDAKTQLQEEAARRGLPAPVYTRIGQEGPDHAPRFRVRADVGPHQAEAVAGSLKLAQAEAARAILRQMP
Response given: 0.228

Challenge: Report soluble fraction (log2) for HMAMTQNVDLAGRIVFNEKKEEVFNFGKHKGRSVAEVFEKEPSYYDWMLKGDFPAETKQVLTALRLRGLS
Response given: -0.0725

Challenge: State its soluble fraction (log2) for this sequence: HMASKTGTITATSLNVRSGAATTYSILGTLSNGKTVTIYEESNGWYKINYNGGYGWVSKTYVSTG
Response given: -0.435

Challenge: For the sequence HMEEEDELALFLREERKNYDLTLTDVHEKTGIPQKVLKEFQWGDAQLTDRQRYTLTQYVEEAREYFQENA , give its reported soluble fraction (log2).
Response given: 0.0369

Challenge: Return reported soluble fraction (log2). Input sequence: HMKNVEEMILGKLKRKVSENLENASFEEIILVDAEKSVYKGIIKANYIEYYFRVNLSTGEVLSWKLK
Response given: -0.373

Challenge: Output measured soluble fraction (log2) for this item: HMSSYMQMQLERLESLLQKNDLTDSDKYDIRQLVEDLDKVPESVSPNLVGAYMTIKNRYASVLKTVL
Response given: 0.501
